Answer each item with its documented koff.
- Tested On: T1, AAV8
- T1 construct: also called adeno-associated virus serotype 8
- Assay Info: SPR, AAV on CM5 chip;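 also: surface plasmon resonance with AAV amine-coupled to the chip as ligand, nanobodies injected as analyte over a concentration series, rate constants and affinity fitted from binding curves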
Give bare numbers, in s⁻¹.

A4-015 (VHH) VHH: VQLQESGGGLVQPGGSLRLSCAASGSIFSINLMGWYRQAAGKQRELVATITPGGNTNYAGSVKGRFTISRDNAKNTVYLQMNSLRPEDTAVYYCHVDEVRQSSWTTSNLWGQGTQVTVSS :: 0.0017

Now consider the entry below.
A4-010 (VHH) VHH: VQLQESGGGLVQAGGSLRLSCAASGSIFSINSMGWYRQAPGKQRELVATVTRGGNTNYADSVKGRFTISRDNAKNTVYLQMNSLRPEDTAVYYCHVDEVRESSWTTSNLWGQGTQVTVSS yielded koff of 0.00249

Hello, the source for this data is patent US20260193326A1, in case you need it.
